- Assay Target: Pim3 kinase (Homo sapiens, UniProt Q86V86)
- Protocol Summary: Pim3 ATP depletion assay
- Assay type: biochemical
- Conditions: read-out: IC50 (μM) PIM3
The following compounds are shown together with reported IC50 values.

| Compound | Assay Target | IC50 |
| --- | --- | --- |
| COc1ccc(-c2cnc(N)c(C(=O)Nc3cnccc3N3CCNCC3)n2)cc1 | Pim3 kinase (Homo sapiens, UniProt Q86V86) | < 1 µM |
| COc1ccccc1-c1cnc(N)c(C(=O)Nc2cnccc2N2CCCC(N)C2)n1 (centres unmarked) | Pim3 kinase (Homo sapiens, UniProt Q86V86) | < 1 µM |
| Nc1nccnc1C(=O)Nc1cnccc1N1CCC2(CC1)OCCO2 | Pim3 kinase (Homo sapiens, UniProt Q86V86) | > 25 µM |
| N#Cc1ccccc1-c1cnc(N)c(C(=O)Nc2cnccc2N2CCCC(N)C2)n1 (centres unmarked) | Pim3 kinase (Homo sapiens, UniProt Q86V86) | < 1 µM |
| Nc1nccnc1C(=O)Nc1[nH]c(=O)ncc1N1CCCC(C(F)(F)F)C1 (centres unmarked) | Pim3 kinase (Homo sapiens, UniProt Q86V86) | < 1 µM |
| CS(=O)(=O)c1ccc(N2CCC(N)CC2)c(NC(=O)c2nccnc2N)c1 | Pim3 kinase (Homo sapiens, UniProt Q86V86) | 10 to 25 µM |

Entry under review: COC(=O)c1ccc(-c2ccc(N)c(C(=O)Nc3cnccc3N3CCC[C@H](N)C3)n2)c(F)c1 . Reported IC50?
< 1 µM

Entry under review: COC1CCN(c2ccncc2NC(=O)c2nc(-c3c(F)cccc3F)ccc2N)CC1N (centres unmarked) . Reported IC50?
< 1 µM

====

The following compounds are shown together with reported IC50 values.
- Assay Target: UniProtKB Q9P1W9
- Sequence (Q9P1W9 whole entry): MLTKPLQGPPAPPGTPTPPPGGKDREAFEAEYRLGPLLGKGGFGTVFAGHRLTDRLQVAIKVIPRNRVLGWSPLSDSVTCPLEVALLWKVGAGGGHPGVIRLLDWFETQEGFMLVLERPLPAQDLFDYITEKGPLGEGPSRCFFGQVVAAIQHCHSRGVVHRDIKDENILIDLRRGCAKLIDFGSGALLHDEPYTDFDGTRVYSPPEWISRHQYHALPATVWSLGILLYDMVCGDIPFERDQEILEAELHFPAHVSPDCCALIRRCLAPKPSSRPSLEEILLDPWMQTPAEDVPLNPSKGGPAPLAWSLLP
- Protocol Summary: Pim2 ATP depletion assay;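 note: Luciferase-based luminescent readout of ATP remaining after PIM2 phosphorylates a BAD peptide, final 5 nM enzyme, 4 µM ATP, 10 µM peptide, 2.5% DMSO, run to roughly half ATP consumption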
- Assay type: biochemical
- Conditions: read-out: IC50 (μM) PIM2

Recorded IC50, per entry:
| Smiles Text | IC50 |
| --- | --- |
| Nc1nccnc1C(=O)Nc1[nH]c(=O)ncc1-c1cccs1 | < 1 µM |
| NC[C@H]1CCCN1c1ccncc1NC(=O)c1nccnc1N | > 25 µM |
| Nc1nccnc1C(=O)Nc1ccccc1N1CCC(N)CC1 | 1 to 10 µM |
| Cc1ccc(NC(=O)c2nccnc2N)c(N2CCNCC2)c1 | > 25 µM |

Then this compound:
Entry under review: COc1ccc(N2CCC(N)CC2)c(NC(=O)c2nc(Br)cnc2N)c1 . Reported IC50?
< 1 µM

====

- Assay Target: human full length PKCE enzyme (Homo sapiens)
- Construct: human full length PKCE enzyme purchased from InVitrogen; purchased InVitrogen
- Sequence (Q02156 whole entry): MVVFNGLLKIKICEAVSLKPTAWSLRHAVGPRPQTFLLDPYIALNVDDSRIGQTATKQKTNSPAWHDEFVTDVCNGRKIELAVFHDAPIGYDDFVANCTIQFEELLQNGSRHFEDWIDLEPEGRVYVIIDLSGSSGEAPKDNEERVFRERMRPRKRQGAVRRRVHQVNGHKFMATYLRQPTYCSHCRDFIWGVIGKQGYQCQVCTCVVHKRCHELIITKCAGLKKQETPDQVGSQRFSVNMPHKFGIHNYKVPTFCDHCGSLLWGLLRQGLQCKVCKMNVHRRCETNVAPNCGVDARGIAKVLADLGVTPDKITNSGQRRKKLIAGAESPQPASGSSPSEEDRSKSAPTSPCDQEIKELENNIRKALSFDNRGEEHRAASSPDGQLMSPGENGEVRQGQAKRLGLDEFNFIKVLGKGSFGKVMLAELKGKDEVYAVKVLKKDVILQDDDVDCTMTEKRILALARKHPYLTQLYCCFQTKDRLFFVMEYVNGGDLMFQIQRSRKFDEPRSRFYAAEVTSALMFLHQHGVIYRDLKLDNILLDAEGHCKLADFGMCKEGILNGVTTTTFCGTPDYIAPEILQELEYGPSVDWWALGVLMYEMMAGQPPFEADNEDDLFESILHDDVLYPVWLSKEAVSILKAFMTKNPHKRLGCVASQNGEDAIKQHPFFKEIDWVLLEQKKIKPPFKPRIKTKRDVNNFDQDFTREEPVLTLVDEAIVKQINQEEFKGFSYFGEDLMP
- Protocol Summary: In vitro PKCE assay
- Assay type: biochemical
- Conditions: 10 nM enzyme, 40 uM peptide substrate, 20 uM ATP, KinaseGlo Plus readout; read-out: PKCε IC50
The following compounds are shown together with reported IC50 values.

Recorded IC50, per entry:
| Compound | Observed Result |
| --- | --- |
| Nc1nc(N)c(-c2ccccc2F)nc1C(=O)Nc1cnccc1N1CCCC(N)C1 (stereo not drawn) | 1 to 10 µM |
| Nc1nc(N)c(C(=O)Nc2ccncc2N2CCCCC2)nc1Cl | 1 to 10 µM |
| COc1ccc(-c2cnc(N)c(C(=O)Nc3cnccc3N3CCC(N)CC3)n2)cc1 | < 1 µM |

Then this compound:
Entry under review: Nc1ncc(-c2ccc(N)c(C(=O)Nc3cnccc3N3CCC[C@H](N)C3)n2)cn1 . Reported IC50?
10 to 25 µM
